- SYSTEM NAME: 25P Btk enzyme (un-activated full-length Btk) (Homo sapiens (Human), UniProt Q06187)
- Sequence (Q06187 whole entry): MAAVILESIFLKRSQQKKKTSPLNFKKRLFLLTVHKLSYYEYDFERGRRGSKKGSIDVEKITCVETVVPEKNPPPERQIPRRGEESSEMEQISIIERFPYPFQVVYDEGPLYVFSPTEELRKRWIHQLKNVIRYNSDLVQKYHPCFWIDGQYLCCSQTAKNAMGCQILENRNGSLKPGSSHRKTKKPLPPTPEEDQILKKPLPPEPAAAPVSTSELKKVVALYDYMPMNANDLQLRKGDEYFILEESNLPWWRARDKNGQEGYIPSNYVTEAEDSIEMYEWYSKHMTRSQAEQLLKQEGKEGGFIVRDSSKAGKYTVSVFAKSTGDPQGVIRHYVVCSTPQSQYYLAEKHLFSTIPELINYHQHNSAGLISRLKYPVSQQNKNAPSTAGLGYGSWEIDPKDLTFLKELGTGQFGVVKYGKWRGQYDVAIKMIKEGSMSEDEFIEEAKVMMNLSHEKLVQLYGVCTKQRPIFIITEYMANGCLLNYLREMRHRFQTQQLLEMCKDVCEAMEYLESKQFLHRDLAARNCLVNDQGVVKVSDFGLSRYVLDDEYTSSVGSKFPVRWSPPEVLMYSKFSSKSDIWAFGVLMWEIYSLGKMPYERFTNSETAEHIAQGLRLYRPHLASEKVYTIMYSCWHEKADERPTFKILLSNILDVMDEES
- EXPERIMENT NOTES: 25P Btk Enzyme Activity Assay (LANCE TR-FRET)
- Type: biochemical
- APPLIED CONDITIONS: un-activated Btk (25P), 25 μM ATP, 60 minute compound and enzyme incubation; read-out: Btk binding IC50 (nM) with 25 P
MEASURE: IC50 (nM)

Recorded IC50, per entry:
>>> df
                                        smi  measure  value_observed
0  Cn1cc(-c2cc(-c3cccc(-n4ncc5cc(C(C)(C)C)cc(F)c5c4=O)c3CO)cc3c(N)n[nH]c23)cn1     IC50           0.073
1  CC(C)n1ccc(-c2cc(-c3cccc(-n4ncc5cc(C(C)(C)C)cc(F)c5c4=O)c3CO)cc3c(N)n[nH]c23)n1     IC50            0.16

a = CC(C)(C)c1cc(F)c2c(=O)n(-c3cccc(-c4ccc5[nH]nc(N)c5n4)c3CO)ncc2c1
b = Cn1nc(N)c2cc(-c3cccc(-n4ncc5cc(C(C)(C)C)cc(F)c5c4=O)c3CO)cc(C(N)=O)c21
c = CC(C)(C)c1cc(F)c2c(=O)n(-c3cccc(-c4cc(C(N)=O)c5[nH]nc(N)c5c4)c3CO)ncc2c1
d = CC(C)(C)c1cc(F)c2c(=O)n(-c3cccc(-c4cc(-c5cccnc5)c5[nH]nc(N)c5c4)c3CO)ncc2c1
e = CC(C)(C)c1cc(F)c2c(=O)n(-c3cccc(-c4ccc5c(c4)c(N)nn5Cc4ccncc4)c3CO)ncc2c1
Task field, ranking: reported IC50, descending order. The labels, placed in the requested order, form the answer.
b, e, a, d, c
(b: 47.3 nM, e: 29.6 nM, a: 7.7 nM, d: 0.8 nM, c: 0.16 nM)

###

- SYSTEM NAME: 100P Btk enzyme (activated full-length Btk) (Homo sapiens (Human), UniProt Q06187)
- EXPERIMENT NOTES: 100P Btk Enzyme Activity Assay (LANCE TR-FRET)
- Assay type: biochemical
- APPLIED CONDITIONS: activated Btk (100P), 25 μM ATP, 60 minute compound and enzyme incubation; top concentration 1000 nM; read-out: Btk binding IC50 (nM) with 100 P
MEASURE: IC50 (nM)

Recorded IC50, per entry:
>>> df
                                        smi  measure  readout_unit  value_observed
0  CC(C)(C)c1cc(F)c2c(=O)n(-c3cccc(-c4cc(-c5cnn(C6CCOCC6)c5)c5[nH]nc(N)c5c4)c3CO)ncc2c1     IC50            nM             2.6
1  CC(C)(C)c1cc(F)c2c(=O)n(-c3cccc(-c4cc(-c5ccccn5)c5[nH]nc(N)c5c4)c3CO)ncc2c1     IC50            nM            17.4

P = CC(C)(C)c1cc(F)c2c(=O)n(-c3cccc(-c4cc(-c5cnn(C(C)(C)C(=O)O)c5)c5[nH]nc(N)c5c4)c3CO)ncc2c1
Q = CC(C)(C)c1cc(F)c2c(=O)n(-c3cccc(-c4cc(C(N)=O)c5[nH]nc(N)c5c4)c3CO)ncc2c1
Of P and Q , whose reported IC50 is numerically smaller? Mark your answer with the label of the selected entry.
Q
(Q: 16 nM, P: 31.5 nM)

P = CNC(=O)c1cc(-c2cccc(-n3ncc4cc(C(C)(C)C)cc(F)c4c3=O)c2CO)cc2c(N)n[nH]c12
Q = CC(C)(C)c1cc(F)c2c(=O)n(-c3cccc(-c4cc5c(N)n[nH]c5cn4)c3CO)ncc2c1
Of P and Q , whose reported IC50 is numerically smaller? Mark your answer with the label of the selected entry.
P
(P: 29.3 nM, Q: 801 nM)

Reference source for all entries: patent US10246457B2
